test system: AA cells; experiment: Oxygen equilibrium studies with normal whole blood; assay type: cell-based, human; settings: 5 mM compound; P50 of treated AA cells minus P50 of control
# ΔP50 annotations
experimental-readout: ΔP50 (mmHg)

O=Cc1ccco1	−11.35
Cc1ccc(C=O)o1	−16.16
CCc1ccc(C=O)o1	−15.71
COc1cc(C=O)ccc1O [Vanillin, vanillin, reference compound]	−6.78
O=Cc1ccc(CO)o1 [Compound 5HMF, 5-hydroxymethyl-2-furfuraldehyde]	−17.52
